Where these numbers come from: patent US20230374116A1

# Study system: Alpha RBD
Listing of entries alongside the reported T1/2.

Binder: F2 (VHH, also called VHH F2) VHH: QVQLVESGGGLVQAGGSLRLACIASGRTFHSYVMAWFRQAPGKEREFVAAISWSSTPTYYGESVKGRFTISRDNAKNTVYLQMNRLKPEDTAVYFCAADRGESYYYTRPTEYEFWGQGTQVTVSS
T1/2: 51 min
//
Binder: C5 (VHH, also called VHH C5) VHH: QVQLVESGGGSVQAGGSLTLSCVASGVTLGRHAIGWFRQAPGKERERVSCIRTFDGITSYVESTKGRFTISSNNAMNTVYLQMNSLKPEDTAVYFCALGVTAACSDNPYFWGQGTQVTVSS
T1/2: 1 min
//
Binder: C1 (VHH) VHH: QVQLVESGGGLVQPGGSLRLSCAASGFTNDFYSIAWFRQAPGKEREGVSWLSVSDNTPTYVDSVKDRFTISRHNANNTVYLQMNMLKPEDTAIYYCAAGRFAGRDTWPSSYDYWGQGTQVTVSS
T1/2: 21 min
//
Binder: H3 (VHH) VHH: QVQLVESGGGLVKTGGSLRLSCAASGRTFSTYSMGWFRQAPGKEREFVAGMRWTGSSTFYSDSVKGRFTVSRNNAKDTVYLHMNSLKPEDTAVYYCAITTIVRAYYTEYTEADFGSWGQGTQVTVSS
T1/2: 10 min
